Where these numbers come from: a melting point compilation (Tetko et al.)

Exercise: for every item that follows, state its recorded melting point.

IN: Identify the reported melting point for the following entry. `COc1ccc(CNc2c([N+](=O)[O-])ncn2C)cc1OC`
OUT: 196 to 198 °C

IN: State, in one line, measured melting point of `N#CC1(O)CCOCC1`
OUT: 43 to 45 °C

IN: Please give measured melting point of the following entry: `CCOc1ccc(CN2C(=O)c3ccccc3C2=O)cc1C(=O)O`
OUT: 172 to 174 °C

IN: Give reported melting point value for `Cc1cc(Sc2nccn2C)ccc1N`
OUT: 101 to 103 °C

IN: Give a short answer stating reported melting point for `Cc1sc(C(N)=O)cc1S(=O)(=O)Cl` .
OUT: 122 to 124 °C
